Reported values: pKi for σ1-receptor (Cavia porcellus, UniProt Q60492), one per item.
pKi: −log10 of the molar value. Counter-ions that a name gives are not always drawn.
property: pKi

In the examples that follow, each entry is paired with its recorded pKi.
[
  {
    "molecule": "Cc1cc(COCCN2CCCCC2)nn1-c1ccc(Cl)c(Cl)c1",
    "pKi": 8.68
  },
  {
    "molecule": "Cc1c(COCCN2CCOCC2)nn(C2CCCCC2)c1C [Compound 26, hydrochloride]",
    "pKi": 6.96
  }
]

a: Cc1cc(COCCN2CCOCC2)nn1C1CCCCC1
b: Cc1cc(CCOCCN2CCOCC2)nn1-c1ccc(Cl)c(Cl)c1
-- ask Endpoint returns whichever of a and b has the numerically higher pKi. Please respond with the label that marks your chosen entry.
-- reply a
(a: 7.63, b: 6.95)

----------
pKi: −log10 of the molar value. Structures can show the parent of a compound that is named as a salt.
σ1-receptor (Cavia porcellus) data, read-out pKi
Sequence (Q60492 whole entry): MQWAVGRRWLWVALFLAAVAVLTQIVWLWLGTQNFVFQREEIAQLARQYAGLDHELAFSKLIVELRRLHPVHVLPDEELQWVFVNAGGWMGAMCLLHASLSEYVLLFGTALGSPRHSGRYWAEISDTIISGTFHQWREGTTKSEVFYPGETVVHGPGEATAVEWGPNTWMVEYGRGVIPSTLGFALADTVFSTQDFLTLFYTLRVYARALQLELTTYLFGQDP
property: pKi

[
  {
    "molecule": "Cc1cc(COCCN2C[C@@H](C)N[C@@H](C)C2)nn1C1CCCCC1 [Compound 23, hydrochloride]",
    "endpointResult": 6.31
  },
  {
    "molecule": "Cc1cc(CCCN2CCOCC2)nn1-c1ccc2ccccc2c1 [Compound 4]",
    "endpointResult": 6.88
  },
  {
    "molecule": "Cc1cc(CCOCCN2CCOCC2)nn1C1CCCCC1 [Compound 24, hydrochloride]",
    "endpointResult": 6.57
  },
  {
    "molecule": "Cc1cc(CCCN2CCOCC2)nn1-c1cnc2ccccc2c1 [Compound 14]",
    "endpointResult": 6.55
  },
  {
    "molecule": "CC(=O)N1CCN(CCOCc2cc(C)n(C3CCCCC3)n2)CC1 [Compound 22, hydrochloride]",
    "endpointResult": 7.00
  }
]

1: Cc1c(COCCN2CCOCC2)nn(-c2ccc(Cl)c(Cl)c2)c1C [Compound 16]
2: c1cn(C2CCCCC2)nc1COCCN1CCOCC1 [Compound 25]
3: Clc1ccc(-n2ccc(COCCN3CCOCC3)n2)cc1Cl [Compound 15]
-- ask Put the items in sequence by pKi, from largest down. Use the labels to give the ranking in the order requested.
-- reply 3, 2, 1
